B1: NET1 (parent)
chain: IKRTIRVLDVNNQSFREQEEPSNK

# Variants of: B1
# procedure_text: protein stability index of a GFP-peptide fusion (GPS, HEK-293T) (PSI 1-6); higher = more stable;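 also: lentivirally expressed fusions sorted by FACS into six bins by GFP to DsRed ratio, PSI derived from sequencing read proportions per bin multiplied by bin number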
# condition_notes: c terminus: a fixed tail appended
Label Condition not met if protein stability index falls below 4; label Condition met in every other case.

Recorded results for 3 variants are shown here.
1. K24Q | Condition met
2. V10A | Condition not met
3. R6W | Condition not met

Challenge: // inclusive: protein stability index at least 4? input: R16N
Response given: Condition met

Challenge: // inclusive: protein stability index at least 4? input: K2P
Response given: Condition met

Challenge: // inclusive: protein stability index at least 4? input: R16F
Response given: Condition not met

Challenge: // inclusive: protein stability index at least 4? input: Q13T
Response given: Condition not met

Challenge: // inclusive: protein stability index at least 4? input: Q13K
Response given: Condition not met

Challenge: // inclusive: protein stability index at least 4? input: P21M
Response given: Condition not met

Challenge: // inclusive: protein stability index at least 4? input: I1L
Response given: Condition not met

These measurements were taken from the supplement of paper PMC10567573.
